Form field: Emax (one value per entry).
Biological target: recombinant human Meningioma Expressed Antigen 5 (MGEA5), also referred to as O-GlcNAcase (OGA) (Homo sapiens, UniProt O60502)
Construct: Full length OGA enzyme was purchased at OriGene (cat # TP322411); purchased OriGene TP322411
Sequence (O60502 1-916): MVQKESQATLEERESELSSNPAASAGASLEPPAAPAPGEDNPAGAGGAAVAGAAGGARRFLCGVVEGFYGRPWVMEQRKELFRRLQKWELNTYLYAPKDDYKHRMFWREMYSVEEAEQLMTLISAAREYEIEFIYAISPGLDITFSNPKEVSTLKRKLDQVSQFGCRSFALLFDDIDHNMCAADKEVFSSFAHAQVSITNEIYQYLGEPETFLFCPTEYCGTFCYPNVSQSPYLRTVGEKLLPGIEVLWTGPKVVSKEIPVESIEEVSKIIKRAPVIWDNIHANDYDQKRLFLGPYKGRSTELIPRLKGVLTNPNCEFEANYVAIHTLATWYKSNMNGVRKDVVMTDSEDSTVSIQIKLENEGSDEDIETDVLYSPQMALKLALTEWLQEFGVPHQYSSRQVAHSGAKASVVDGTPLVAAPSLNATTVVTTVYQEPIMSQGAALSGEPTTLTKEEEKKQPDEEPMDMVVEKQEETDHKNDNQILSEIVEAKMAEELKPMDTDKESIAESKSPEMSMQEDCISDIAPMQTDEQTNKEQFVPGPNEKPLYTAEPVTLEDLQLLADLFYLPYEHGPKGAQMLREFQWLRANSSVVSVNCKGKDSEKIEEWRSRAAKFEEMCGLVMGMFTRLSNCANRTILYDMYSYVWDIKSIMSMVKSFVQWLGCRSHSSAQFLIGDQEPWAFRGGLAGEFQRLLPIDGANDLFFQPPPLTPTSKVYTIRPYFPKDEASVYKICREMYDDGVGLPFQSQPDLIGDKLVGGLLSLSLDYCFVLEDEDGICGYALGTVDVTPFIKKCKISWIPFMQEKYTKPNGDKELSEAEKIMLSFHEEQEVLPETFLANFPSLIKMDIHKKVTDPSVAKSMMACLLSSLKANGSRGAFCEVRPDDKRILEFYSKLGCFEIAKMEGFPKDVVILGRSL
Test: OGA biochemical assay: inhibition of FM-GlcNAc hydrolysis, fluorescence; protocol A (10 nM OGA, 1 h) or protocol B (2 nM OGA, 6 h)
Conditions: Enzymatic protocol B (2 nM OGA, 6 h)
Record the value in %, omitting the unit from your answer.

compound: CC(=O)Nc1ncc(CN2CCC[C@H](Cc3cc(F)ncc3C)C2)s1 [compound 122]
readout unit: %
reported measurement: 100
//
compound: CC(=O)Nc1ncc(CN2CCC[C@@H](Cc3cc(C)nc(C)n3)C2)s1 (single isomer, unassigned) [compound 26]
readout unit: %
reported measurement: 99.5
//
compound: Cc1cc(C[C@H]2CCN(C(C)c3cc4ccccc4n3C)C2)cc(C)n1 (mixture of isomers) [compound 94]
readout unit: %
reported measurement: 30.7
//
compound: CC(=O)Nc1ncc(CN2CCC(Cc3cc(F)ncc3C)C2)s1 (centres unmarked) [compound 106]
readout unit: %
reported measurement: 101
//
compound: CC(=O)Nc1ncc(CN2CCC(Cc3ccc(F)c(C)n3)C2)s1 (centres unmarked) [compound 107]
readout unit: %
reported measurement: 102
//
compound: Cc1cc(CC2CCCN(C(C)c3ccc4c(c3)OCO4)C2)cc(C)n1 (racemic) [compound 141]
readout unit: %
reported measurement: 102

# lookup: Emax of CC(=O)Nc1ncc(CN2CCCC(Nc3cc(C)nc(C)c3)C2)s1 (centres unmarked) [compound 31] 102

# lookup: Emax of CC(=O)Nc1ncc(CN2CCC[C@H](Cc3ncc(F)cc3F)C2)s1 [compound 121] 98.3

Reference source: patent US20200079766A1
